- condition: in acetone, 293.2 K
property: solubility (mole fraction)

// solubility (mole fraction) lookup, key: Oc1ccc(/C=C/c2cc(O)cc(O)c2)cc1 0.0871

----------
- condition: in acetone, 273.2 K
property: solubility (mole fraction)
Write the number on its own, no unit after it.

// solubility (mole fraction) lookup, key: Oc1ccc(/C=C/c2cc(O)cc(O)c2)cc1 0.0846

----------
- condition: in ethanol, 293.2 K
property: solubility (mole fraction)

// solubility (mole fraction) lookup, key: Oc1ccc(/C=C/c2cc(O)cc(O)c2)cc1 0.0156

----------
- condition: in water, 293.2 K
property: solubility (mole fraction)
Write the number on its own, no unit after it.

// solubility (mole fraction) lookup, key: Oc1ccc(/C=C/c2cc(O)cc(O)c2)cc1 2.9e-06

----------
- condition: in water, 303.2 K
property: solubility (mole fraction)
Write the number on its own, no unit after it.

// solubility (mole fraction) lookup, key: Oc1ccc(/C=C/c2cc(O)cc(O)c2)cc1 4.57e-06

----------
- condition: in acetone, 313.2 K
property: solubility (mole fraction)

// solubility (mole fraction) lookup, key: Oc1ccc(/C=C/c2cc(O)cc(O)c2)cc1 0.0886

----------
- condition: in acetone, 303.2 K
property: solubility (mole fraction)
Write the number on its own, no unit after it.

// solubility (mole fraction) lookup, key: Oc1ccc(/C=C/c2cc(O)cc(O)c2)cc1 0.0877

----------
- condition: in ethanol, 303.2 K
property: solubility (mole fraction)

// solubility (mole fraction) lookup, key: Oc1ccc(/C=C/c2cc(O)cc(O)c2)cc1 0.0182

----------
- condition: in water, 323.2 K
property: solubility (mole fraction)
Write the number on its own, no unit after it.

// solubility (mole fraction) lookup, key: Oc1ccc(/C=C/c2cc(O)cc(O)c2)cc1 9.3e-06

----------
- condition: in ethanol, 283.2 K
property: solubility (mole fraction)
Write the number on its own, no unit after it.

// solubility (mole fraction) lookup, key: Oc1ccc(/C=C/c2cc(O)cc(O)c2)cc1 0.0127
